The values you see were collected from patent US20240409629A1.

Below is a list of entries, each paired with its recorded ADCC EC50, Jurkat-CD16a v158-NFAT-luciferase effector cells, U2OS-CLDN18.2 target cells value.
target: human CLDN18.2 (human); assay: cell-based or functional assay
Return type: number; implicit unit nM.

# count of solved cases: 2
BINDER	NUMBER
chimeric antibody xi22F12 (antibody, human IgG1, kappa, V domains shown, Mouse variable regions on human IgG1/kappa; defucosylated, expressed in FUT8-knockout CHO-S cells; also called chimeric 22F12) VH: QVQLKESGPGLVAPSQSLSITCTVSGFSLTSYGVYWVRQPPGKGLEWLGVIWAGGSTNYNSALMSRLSINKDNSKSQVFLKMNSLQTDDTAMYYCARDRGRLLSMDYWGQGTSVTVSS VL: DIVMTQSPSSLSVSAGEKVTMSCRSSQSLLNSGNQKNYLAWYQQKPGQPPKLLIYGASTRESGVPDRFTGSGSGTDFTLTIGSVQAEDLAVYYCQNVHFFPFTFGSGTKLEIKR	0.02
chimeric antibody xi34G6 (antibody, human IgG1, kappa, V domains shown, Mouse variable regions on human IgG1/kappa; defucosylated, expressed in FUT8-knockout CHO-S cells; also called chimeric 34G6) VH: QVQLKESGPDLVAPSQSLSITCTVSGFSLTSYGVHWVRQPPGKGLEWLVVIWSDGSTTYNSALKSRLSISKDNSKSQVFLKMNSLQTDDTAIYYCARHAYYGNSFDYWGQGTTLTVSS VL: DIVMTQSPSSLTVTAGEKVTMSCKSSQSLLNSGNQKSYLTWYQQKPGQPPKLLIYWASTRESGVPDRFTGSGSGTDFTLTISSVQAEDLAVYYCQNVYIFPLTFGAGTKLELKR	0.06

Look up ADCC EC50, Jurkat-CD16a v158-NFAT-luciferase effector cells, U2OS-CLDN18.2 target cells for this binder: chimeric antibody xi40F6 (antibody, human IgG1, kappa, V domains shown, Mouse variable regions on human IgG1/kappa; defucosylated, expressed in FUT8-knockout CHO-S cells; also called chimeric 40F6) VH: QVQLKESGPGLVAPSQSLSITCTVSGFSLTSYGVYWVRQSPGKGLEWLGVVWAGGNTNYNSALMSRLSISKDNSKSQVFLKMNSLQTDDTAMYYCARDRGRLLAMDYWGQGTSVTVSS VL: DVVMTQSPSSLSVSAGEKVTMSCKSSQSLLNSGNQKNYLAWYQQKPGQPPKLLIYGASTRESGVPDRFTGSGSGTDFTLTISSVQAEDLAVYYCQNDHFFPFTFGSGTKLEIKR
0.032

Follow-up item: IMAB362 (antibody, human IgG1, kappa, V domains shown, Positive control, prepared in-house; also called Claudiximab; TMAB362 [sic]) VH: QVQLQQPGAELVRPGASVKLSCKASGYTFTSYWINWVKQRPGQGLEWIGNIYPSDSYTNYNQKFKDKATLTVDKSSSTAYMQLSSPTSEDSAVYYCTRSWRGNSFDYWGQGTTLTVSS VL: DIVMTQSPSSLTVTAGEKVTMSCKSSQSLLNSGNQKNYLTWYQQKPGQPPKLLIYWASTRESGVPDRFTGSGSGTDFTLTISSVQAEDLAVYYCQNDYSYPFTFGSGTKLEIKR
0.05

Follow-up item: chimeric antibody xi28G3 (antibody, human IgG1, kappa, V domains shown, Mouse variable regions on human IgG1/kappa; defucosylated, expressed in FUT8-knockout CHO-S cells; also called chimeric 28G3) VH: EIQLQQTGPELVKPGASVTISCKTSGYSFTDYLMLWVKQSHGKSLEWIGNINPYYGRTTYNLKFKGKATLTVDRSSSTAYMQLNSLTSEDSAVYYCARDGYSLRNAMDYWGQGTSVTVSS VL: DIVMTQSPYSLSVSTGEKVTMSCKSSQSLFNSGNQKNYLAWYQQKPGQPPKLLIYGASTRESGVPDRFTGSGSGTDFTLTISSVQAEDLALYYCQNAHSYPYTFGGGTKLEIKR
0.028
